B1: TPR 5TU (parent)
chain: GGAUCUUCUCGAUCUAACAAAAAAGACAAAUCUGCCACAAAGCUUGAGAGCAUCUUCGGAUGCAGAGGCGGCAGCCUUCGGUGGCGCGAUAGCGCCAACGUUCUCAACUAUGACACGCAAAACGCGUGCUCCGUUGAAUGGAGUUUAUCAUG

- Variants of: B1
- testSummary: polymerase ribozyme fitness, log enrichment relative to wild type (log ratio); higher = more active; in vitro selection for triplet polymerase activity
Fewer inactive variants are shown than the library holds.
Assign class by polymerase ribozyme fitness (log ratio): not lower than -3 means Satisfied; lower than -3 means Not satisfied.

INSERT INTO results (mutationannotation, group) VALUES
  ('G50C C95G U101G A115U C118G A122C G126U', 'Not satisfied'),
  ('C32G C36U A64U C96U A107C G117U U134C A150C', 'Not satisfied'),
  ('U33G C95G C116A', 'Not satisfied'),
  ('A49C C99G', 'Not satisfied');

Now take the following variant into account.
Textbook exercise: given the entry G59U C93A G152U , state whether its polymerase ribozyme fitness (log ratio) is greater than or equal to -3. Not satisfied

// provenance: the RNAGym collection of RNA variant scans (doi:10.1073/pnas.2313332121)
